target: T1, recombinant human PDGF-BB (human, UniProt P01127 82-190, biotin-labelled in the binding and competition ELISAs (sites not given)); assay: receptor competition ELISA: antibody pre-incubated with biotin-hPDGF-BB, binding to coated hPDGF-Rβ-Fc
T1 construct: Bought protein (CST cat#8912BF) in the ELISAs and cell assays; purified recombinant PDGF-BB in Biacore; also called huPDGF-BB; hPDGF-BB
T1 sequence (P01127 82-190 limits assumed): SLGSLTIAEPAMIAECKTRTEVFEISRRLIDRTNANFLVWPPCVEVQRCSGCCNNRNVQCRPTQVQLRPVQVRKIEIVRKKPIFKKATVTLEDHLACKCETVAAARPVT
EXPERIMENTAL_ENDPOINT: IC50
Show the value, then the unit it is measured in.

Suppose we examine the binder chBDI-9E8 (antibody, V domains shown, also called chimeric BDI-9E8-E7) VH: QVTLKESGPGILQPSQTLSLTCTFSGFSLSTYGMGVGWIRQPSGKGLEWLANIWWDDDKYYNPSLKNRLTISKDTSNNQAFLKITNVDTADTATYYCARIESIGTTYSFDYWGQGVMVTVSS VL: QFTLTQPKSVSGSLRSTITIPCERSSGDIGDSYVSWYQQHLGRPPINVIYADDQRPSEVSDRFSGSIDSSSNSASLTITNLQMDDEADYFCQSYDINIDIVFGGGTKLTVL ; what IC50 value has been reported?
0.791 nM
